PROTOCOL NOTES: logP by HPLC on reversed-phase column (C18), EEC Directive 79/831 Annex V.A8
Assay type: physicochemical
SETUP CONDITIONS: HPLC, C18, acetonitrile (0.1% formic acid)/water (0.09% formic acid) gradient
logP listing for selected molecules.
ENDPOINT: logP

[[record]]
smiles_text = "CCc1cc(C(F)(C(F)(F)F)C(F)(F)F)cc(C)c1-n1cc(-c2cnc(Cl)c(C(=O)NC(C)C)c2)nn1"
recorded_result = 4.4

[[record]]
smiles_text = "N#CC1(NC(=O)c2cc(-c3cn(-c4c(Cl)cc(C(F)(C(F)(F)F)C(F)(F)F)cc4OC(F)(F)F)nn3)cnc2Cl)CC1"
recorded_result = 4.0

[[record]]
smiles_text = "Cc1cc(C(F)(C(F)(F)F)C(F)(F)F)cc(C(F)(F)F)c1-n1cc(-c2cnc(Cl)c(C(=O)N(C)C3CC3)c2)nn1"
recorded_result = 4.3

[[record]]
smiles_text = "O=C(NCC(F)(F)F)c1cc(-c2cn(-c3c(Cl)cc(-c4ccccc4)cc3Cl)nn2)cnc1Cl"
recorded_result = 3.9

[[record]]
smiles_text = "Cc1cc(C(F)(C(F)(F)F)C(F)(F)F)cc(Br)c1-n1cc(-c2cnc(Cl)c(C(=O)N(C)C3CC3)c2)nn1"
recorded_result = 4.4

[[record]]
smiles_text = "CC(C)NC(=O)c1cc(-c2cn(-c3c(Cl)cc(-c4ccccc4)cc3Cl)nn2)cnc1Cl"
recorded_result = 3.8

[[record]]
smiles_text = "CN(C(=O)c1cc(-c2cn(-c3c(Cl)cc(C(F)(C(F)(F)F)C(F)(F)F)cc3OC(F)(F)F)nn2)cnc1Cl)C1CC1"
recorded_result = 4.6

[[record]]
smiles_text = "CCc1cc(C(F)(C(F)(F)F)C(F)(F)F)cc(C)c1-n1cc(-c2cnc(Cl)c(C(=O)NC3CC3)c2)nn1"
recorded_result = 4.1


* * *

This listing pairs molecules with measured efficacy (kill in %).
Test system: Lucilia cuprina
PROTOCOL NOTES: Lucilia cuprina test
Type: in vivo
SETUP CONDITIONS: application rate 100 ppm, L1 larvae, after 2 days
ENDPOINT: efficacy (kill in %)

[[record]]
smiles_text = "Cc1cc(C(F)(C(F)(F)F)C(F)(F)F)cc(C(F)(F)F)c1-n1cc(-c2cnc(Cl)c(C(=O)NC3(C#N)CC3)c2)nn1"
target_desc = "Lucilia cuprina"
recorded_result = 90

[[record]]
smiles_text = "N#CC1(NC(=O)c2cc(-c3cn(-c4c(Cl)cc(C(F)(C(F)(F)F)C(F)(F)F)cc4Cl)nn3)cnc2Cl)CC1"
target_desc = "Lucilia cuprina"
recorded_result = 100

[[record]]
smiles_text = "Cc1cc(C(F)(C(F)(F)F)C(F)(F)F)cc(C)c1-n1cc(-c2cnc(C)c(C(=O)NC3(C#N)CC3)c2)nn1"
target_desc = "Lucilia cuprina"
recorded_result = 100

[[record]]
smiles_text = "COc1ncc(-c2cn(-c3c(C)cc(C(F)(C(F)(F)F)C(F)(F)F)cc3C)nn2)cc1C(=O)NC1CC1"
target_desc = "Lucilia cuprina"
recorded_result = 100

[[record]]
smiles_text = "CCc1cc(C(F)(C(F)(F)F)C(F)(F)F)cc(C)c1-n1cc(-c2cnc(Cl)c(C(=O)NC3CC3)c2)nn1"
target_desc = "Lucilia cuprina"
recorded_result = 100

[[record]]
smiles_text = "Cc1cc(C(F)(C(F)(F)F)C(F)(F)F)cc(C(F)(F)F)c1-n1cc(-c2cnc(Cl)c(C(=O)N(C)C3CC3)c2)nn1"
target_desc = "Lucilia cuprina"
recorded_result = 100

[[record]]
smiles_text = "CCc1cc(C(F)(C(F)(F)F)C(F)(F)F)cc(C)c1-n1cc(-c2cnc(Cl)c(C(=O)N(C)C3CC3)c2)nn1"
target_desc = "Lucilia cuprina"
recorded_result = 100

[[record]]
smiles_text = "Cc1cc(C(F)(C(F)(F)F)C(F)(F)F)cc(C(F)(F)F)c1-n1cc(-c2cnc(Cl)c(C(=O)NC3CC3)c2)nn1"
target_desc = "Lucilia cuprina"
recorded_result = 100

[[record]]
smiles_text = "CCNC(=O)c1cc(-c2cn(-c3c(Cl)cc(-c4ccccc4)cc3Cl)nn2)cnc1Cl"
target_desc = "Lucilia cuprina"
recorded_result = 100

[[record]]
smiles_text = "CN(C(=O)c1cc(-c2cn(-c3c(Cl)cc(C(F)(C(F)(F)F)C(F)(F)F)cc3OC(F)(F)F)nn2)cnc1Cl)C1CC1"
target_desc = "Lucilia cuprina"
recorded_result = 100

[[record]]
smiles_text = "O=C(NC1CC1)c1cc(-c2cn(-c3c(Cl)cc(C(F)(C(F)(F)F)C(F)(F)F)cc3C(F)(F)F)nn2)cnc1Cl"
target_desc = "Lucilia cuprina"
recorded_result = 100

[[record]]
smiles_text = "COc1ncc(-c2cn(-c3c(C)cc(C(F)(C(F)(F)F)C(F)(F)F)cc3C)nn2)cc1C(=O)NC1(C#N)CC1"
target_desc = "Lucilia cuprina"
recorded_result = 100

[[record]]
smiles_text = "Cc1cc(C(F)(C(F)(F)F)C(F)(F)F)cc(C)c1-n1cc(-c2cnc(Cl)c(C(=O)NC3(C#N)CC3)c2)nn1"
target_desc = "Lucilia cuprina"
recorded_result = 90

[[record]]
smiles_text = "CCNC(=O)c1cc(-c2cn(-c3c(C)cc(C(F)(C(F)(F)F)C(F)(F)F)cc3Br)nn2)cnc1Cl"
target_desc = "Lucilia cuprina"
recorded_result = 100

[[record]]
smiles_text = "N#CC1(NC(=O)c2cc(-c3cn(-c4c(Cl)cc(C(F)(C(F)(F)F)C(F)(F)F)cc4C(F)(F)F)nn3)cnc2Cl)CC1"
target_desc = "Lucilia cuprina"
recorded_result = 100

[[record]]
smiles_text = "Cc1cc(C(F)(C(F)(F)F)C(F)(F)F)cc(Br)c1-n1cc(-c2cnc(Cl)c(C(=O)N(C)C3CC3)c2)nn1"
target_desc = "Lucilia cuprina"
recorded_result = 100

[[record]]
smiles_text = "O=C(NC1CC1)c1cc(-c2cn(-c3c(Cl)cc(-c4ccccc4)cc3Cl)nn2)cnc1Cl"
target_desc = "Lucilia cuprina"
recorded_result = 100

[[record]]
smiles_text = "CCc1cc(C(F)(C(F)(F)F)C(F)(F)F)cc(C)c1-n1cc(-c2cnc(Cl)c(C(=O)NCC(F)(F)F)c2)nn1"
target_desc = "Lucilia cuprina"
recorded_result = 100

[[record]]
smiles_text = "COc1ncc(-c2cn(-c3c(Cl)cc(C(F)(C(F)(F)F)C(F)(F)F)cc3Cl)nn2)cc1C(=O)NC1(C#N)CC1"
target_desc = "Lucilia cuprina"
recorded_result = 100

[[record]]
smiles_text = "O=C(NC1CC1)c1cc(-c2cn(-c3c(Cl)cc(C(F)(C(F)(F)F)C(F)(F)F)cc3Cl)nn2)cnc1Cl"
target_desc = "Lucilia cuprina"
recorded_result = 100

[[record]]
smiles_text = "COc1ncc(-c2cn(-c3c(Cl)cc(C(F)(C(F)(F)F)C(F)(F)F)cc3Cl)nn2)cc1C(=O)NC1CC1"
target_desc = "Lucilia cuprina"
recorded_result = 95

[[record]]
smiles_text = "CN(C(=O)c1cc(-c2cn(-c3c(Cl)cc(-c4ccccc4)cc3Cl)nn2)cnc1Cl)C1CC1"
target_desc = "Lucilia cuprina"
recorded_result = 100

[[record]]
smiles_text = "Cc1cc(C(F)(C(F)(F)F)C(F)(F)F)cc(C)c1-n1cc(-c2cnc(Cl)c(C(=O)NC3CC3)c2)nn1"
target_desc = "Lucilia cuprina"
recorded_result = 100

[[record]]
smiles_text = "Cc1cc(C(F)(C(F)(F)F)C(F)(F)F)cc(C)c1-n1cc(-c2cnc(C)c(C(=O)NC3CC3)c2)nn1"
target_desc = "Lucilia cuprina"
recorded_result = 100

[[record]]
smiles_text = "Cc1ncc(-c2cn(-c3c(Cl)cc(C(F)(C(F)(F)F)C(F)(F)F)cc3Cl)nn2)cc1C(=O)NC1CC1"
target_desc = "Lucilia cuprina"
recorded_result = 100

[[record]]
smiles_text = "CCNC(=O)c1cc(-c2cn(-c3c(C)cc(C(F)(C(F)(F)F)C(F)(F)F)cc3CC)nn2)cnc1Cl"
target_desc = "Lucilia cuprina"
recorded_result = 100

[[record]]
smiles_text = "Cc1ncc(-c2cn(-c3c(Cl)cc(C(F)(C(F)(F)F)C(F)(F)F)cc3Cl)nn2)cc1C(=O)NC1(C#N)CC1"
target_desc = "Lucilia cuprina"
recorded_result = 100


* * *

PROTOCOL NOTES: logP by HPLC on reversed-phase column (C18), EEC Directive 79/831 Annex V.A8
Type: physicochemical
SETUP CONDITIONS: HPLC, C18, acetonitrile (0.1% formic acid)/water (0.09% formic acid) gradient
Form field: logP (one value per entry).
ENDPOINT: logP

[[record]]
compound = "Cc1cc(C(F)(C(F)(F)F)C(F)(F)F)cc(Br)c1-n1cc(-c2cnc(Cl)c(C(=O)NCC(F)(F)F)c2)nn1 [Example 26]"
recorded_result = 4.3

[[record]]
compound = "CCc1cc(C(F)(C(F)(F)F)C(F)(F)F)cc(C)c1-n1cc(-c2cnc(Cl)c(C(=O)NCC(F)(F)F)c2)nn1 [Example 23]"
recorded_result = 4.5

[[record]]
compound = "N#CC1(NC(=O)c2cc(-c3cn(-c4c(Cl)cc(C(F)(C(F)(F)F)C(F)(F)F)cc4C(F)(F)F)nn3)cnc2Cl)CC1 [Example 17]"
recorded_result = 3.9

[[record]]
compound = "O=C(NC1CC1)c1cc(-c2cn(-c3c(Cl)cc(C(F)(C(F)(F)F)C(F)(F)F)cc3Cl)nn2)cnc1Cl [Example 3]"
recorded_result = 3.9

[[record]]
compound = "O=C(NC1CC1)c1cc(-c2cn(-c3c(Cl)cc(C(F)(C(F)(F)F)C(F)(F)F)cc3OC(F)(F)F)nn2)cnc1Cl [Example 33]"
recorded_result = 4.1

[[record]]
compound = "Cc1ncc(-c2cn(-c3c(Cl)cc(C(F)(C(F)(F)F)C(F)(F)F)cc3Cl)nn2)cc1C(=O)NC1(C#N)CC1 [Example 6]"
recorded_result = 3.5

[[record]]
compound = "N#CC1(NC(=O)c2cc(-c3cn(-c4c(Cl)cc(C(F)(C(F)(F)F)C(F)(F)F)cc4OC(F)F)nn3)cnc2Cl)CC1 [Example 38]"
recorded_result = 3.7

[[record]]
compound = "O=C(NC1CC1)c1cc(-c2cn(-c3c(Cl)cc(C(F)(C(F)(F)F)C(F)(F)F)cc3C(F)(F)F)nn2)cnc1Cl [Example 16]"
recorded_result = 4.0

[[record]]
compound = "O=C(NC1CC1)c1cc(-c2cn(-c3c(Cl)cc(C(F)(C(F)(F)F)C(F)(F)F)cc3OC(F)F)nn2)cnc1Cl [Example 36]"
recorded_result = 3.7

[[record]]
compound = "Cc1cc(C(F)(C(F)(F)F)C(F)(F)F)cc(C(F)(F)F)c1-n1cc(-c2cnc(Cl)c(C(=O)NC3(C#N)CC3)c2)nn1 [Example 14]"
recorded_result = 3.9

[[record]]
compound = "CN(C(=O)c1cc(-c2cn(-c3c(Cl)cc(C(F)(C(F)(F)F)C(F)(F)F)cc3OC(F)F)nn2)cnc1Cl)C1CC1 [Example 37]"
recorded_result = 4.2

[[record]]
compound = "Cc1cc(C(F)(C(F)(F)F)C(F)(F)F)cc(Br)c1-n1cc(-c2cnc(Cl)c(C(=O)NC3CC3)c2)nn1 [Example 22]"
recorded_result = 3.9

[[record]]
compound = "CCNC(=O)c1cc(-c2cn(-c3c(Cl)cc(-c4ccccc4)cc3Cl)nn2)cnc1Cl [Example 30]"
recorded_result = 3.5

[[record]]
compound = "Cc1cc(C(F)(C(F)(F)F)C(F)(F)F)cc(C)c1-n1cc(-c2cnc(Cl)c(C(=O)NC3CC3)c2)nn1 [Example 2]"
recorded_result = 3.8

